Test system: A498
Assay: NCI tumour cell line growth inhibition, 48 h
Activity calls are given as the source filed them. Rule as the data show it: active = GI50 up to about 1.1 µM and inactive = higher.
Listed below: GI50 values for each entry.
RECORDED ENDPOINT: GI50

CCOC(=O)c1c[nH]c2cc3c(cc2c1=O)CCS3: > 100 µM (inactive)
CCCN(CCc1ccc(-c2ccccc2)cc1)CCc1ccc2nn[nH]c2c1: 17.3 µM (inactive)
CO[C@@H]1C[C@H]2[C@@H]3CC[C@H]([C@H](C)COC(C)=O)[C@@]3(C)CC[C@@H]2[C@@]2(C)CC[C@H]3C[C@]312: > 100 µM (inactive)
Cc1nc(O)c(Cc2ccccc2O)c(-c2ccccc2)n1: > 100 µM (inactive)
Oc1ccc(-c2nn3c(CCCCCCCCc4nnc5sc(-c6ccc(O)cc6)nn45)nnc3s2)cc1: > 100 µM (inactive)
C[C@@H]1O[C@@H]2OCC[C@@H]2C2=C1C(=O)c1ccccc1C2=O: 18 µM (inactive)
CCOc1ccc(/N=C\c2cc(OC)c(OC)c(OC)c2)cc1: > 100 µM (inactive)
CN(C)CCN1C(=O)c2cccc3cc(N)cc(c23)C1=O [AMONAFIDE]: 3.58 µM (inactive)
COc1ccc2c(c1)C1=NCCN(CCO)c3ccc([N+](=O)[O-])c(c31)N2: 0.798 µM (active)

* * *

System: EKVX
Test: NCI tumour cell line growth inhibition, 48 h
Active and inactive are the calls of the source. Rule as the data show it: active = GI50 up to about 1.1 µM and inactive = higher.
RECORDED ENDPOINT: GI50

Nc1ccccc1C(=O)NNC(=O)c1ccccc1N: > 100 µM (inactive)
CN(C)CCN1C(=O)c2cccc3cc(N)cc(c23)C1=O [AMONAFIDE]: 5.94 µM (inactive)
Cc1cc(S(=O)(=O)n2ccnc2O)c(SCCCN(C)C)cc1Cl: > 100 µM (inactive)
CCCn1cnc2c(SCc3ccc(Cl)cc3)nc(N)nc21: 15.5 µM (inactive)
CC(=O)N(CN1C(=O)CCC1C(=O)O)c1ccccc1 (configuration not stated): > 53.8 µM (inactive)
CC1=C(/C(C)=N/NC(=O)C(N)=O)Sc2ccccc2N1: > 100 µM (inactive)
O=c1c(C(c2ccc([N+](=O)[O-])cc2)c2c(O)c3ccccc3n(-c3ccccc3)c2=O)c(O)c2ccccc2n1-c1ccccc1: 24.5 µM (inactive)
CSC(CC(=O)O)C(=O)O (configuration not stated): > 100 µM (inactive)
COC(=O)[C@@]1(O)CC(C)C=C1C=O (some centres not stated): > 100 µM (inactive)
[O-][S+](Nc1ccccc1)c1ccc(-c2ccccc2)cc1 (configuration not stated): > 100 µM (inactive)
Cc1[nH]c2ccccc2c1-c1n[nH]c(=O)c2ccccc12: 17.9 µM (inactive)
CC(C)OC(=O)c1cccnc1/C=N/O: > 100 µM (inactive)

* * *

Test system: UACC-62
Experiment: NCI tumour cell line growth inhibition, 48 h
Active and inactive are the calls of the source. Rule as the data show it: active = GI50 up to about 1.1 µM and inactive = higher.
RECORDED ENDPOINT: GI50

Cc1cccc(N/C(=C(/C(Cl)=C(Cl)Cl)[N+](=O)[O-])n2nnc3ccccc32)c1: 15.5 µM (inactive)
NC1CCC2(O)c3ccccc3C2C1 (stereo unspecified): > 100 µM (inactive)
CC1=NN2C(c3ccc(C)cc3)=CSC2=NC(C)(C)C1: > 100 µM (inactive)
Cc1ccc(/N=N/c2c(C)nn(-c3ccccc3)c2-c2ccccc2)c(Br)c1: 40 µM (inactive)
CN/C(=N\c1ccc(OC)c2ccccc12)SC: > 10 µM (inactive)
Cc1cc(S(=O)(=O)O)ccc1/N=N/c1ccc(/N=N/c2c(O)ccc3ccccc23)c(C)c1: 28.8 µM (inactive)

* * *

Let's go through some GI50 measurements on HCT-15 together.
RECORDED ENDPOINT: GI50 (µM)

CCCCCCCCCCCCCCCCCC(=O)NCC(COP(=O)([O-])OCC[N+](C)(C)C)OC (configuration not stated): 1.95
CC(=O)O[C@H]1C(=O)[C@@]2(C)[C@H]([C@H](OC(=O)c3ccccc3)[C@]3(O)C[C@H](OC(=O)[C@H](O)[C@@H](NC(=O)c4ccco4)c4ccccc4)C(C)=C1C3(C)C)[C@]1(OC(C)=O)CO[C@@H]1C[C@@H]2O: 0.249
N#CC(C#N)=C(N)/C(C#N)=C/c1ccc(O)c(O)c1: 44.5
c1cc2c(cc1NC1=NCCO1)CCCC2: 3.45
O=C(O)c1nc2ccccc2nc1Nc1ccc(Cl)c(Cl)c1: 13.1
Cc1ccc(/N=N/c2c(C)nn(-c3ccccc3)c2-c2ccccc2)c(Br)c1: 28.2
O=S(=O)(N/N=C/c1cccc(/C=N/NS(=O)(=O)c2ccccc2)c1)c1ccccc1: 80.5
Cc1nc(-[n+]2nc(-c3ccncc3)nn2-c2ccccc2)sc1C: 16.4
O=C1C[C@@H](Sc2ccccc2)C2(OCCO2)C2ON3CCCC[C@H]3[C@H]12 (some centres not stated): 2.81

* * *

Tested on: BT-549
Assay: NCI tumour cell line growth inhibition, 48 h
The source made the active and inactive calls. Rule as the data show it: active = GI50 up to about 1.1 µM and inactive = higher. Peptide text beside a SMILES is read from it. * marks the point of attachment. Boc = CC(C)(C)OC(=O)*
Classes used: yes = active, no = inactive

COc1nc(NC2OC(COC(C)=O)C(OC(C)=O)C(OC(C)=O)C2OC(C)=O)c(/N=C/C=N/c2c(NC3OC(COC(C)=O)C(OC(C)=O)C(OC(C)=O)C3OC(C)=O)nc(OC)n(C)c2=O)c(=O)n1C (stereo not drawn): no
COc1cccc(C(NC2=NCCC=N2)c2cc3c(cc2O)OCO3)c1O (stereo not drawn): no
CCCCOc1ccc(/C=C/C2=[N+](CCO)CCO2)cc1: no
O=c1c2ccccc2oc2nc3n(c(=O)c12)CCCS3: no
CC(C)CC(=O)O[C@H]1C(=O)O[C@@H]2C[C@H]3[C@H](C)C(=O)C(O[C@@H]4O[C@H](CO)[C@@H](O)[C@H](O)[C@H]4O)=C[C@]3(C)[C@H]3[C@@H](O)[C@H](O)[C@]4(C(=O)O)OC[C@]32[C@@H]14 [BRUCEOSIDE E]: no
O=C(O)c1ccccn1 [2-PICOLINIC ACID]: no
CN(C)CCN1C(=O)c2cccc3cc(N)cc(c23)C1=O [AMONAFIDE]: no
CN(Cc1cc(Cl)cc(Cl)c1O)Cc1c(O)ccc2ccccc12: no
O=C(c1cccnc1)N1N=C(c2ccc3c(c2)OCO3)CC1(O)c1cc(F)c(Cl)cc1Cl (stereo not drawn): no
COc1cc2c(cc1OC)CC(N=[N+]=[N-])c1cc(OC)c(OC)cc1/C=C\2 (stereo not drawn): yes
CC(C)(C)OC(=O)NCC(=O)N1CCN(C(=O)CNC(=O)OC(C)(C)C)CC1: no
COc1cc(C2OC(N)=C(C#N)C3=C2C(C)CCC3)cc(OC)c1OC (stereo not drawn): no
CCCN(CCc1ccc(-c2ccccc2)cc1)CCc1ccc2nn[nH]c2c1: no
O=C(Nc1ccccc1)Nn1c(-c2cccs2)nc2ccc(I)cc2c1=O: no
c1cc2c(cc1NC1=NCCO1)CCCC2: no
COC(=O)NC(Cc1ccccc1)NC(=O)OC(C)(C)C (stereo not drawn): no
Nc1cc(N)c(/N=N/c2cccc3c(S(=O)(=O)O)cccc23)cc1/N=N/c1cc([N+](=O)[O-])ccc1O: no
COC(=O)C(Cc1c[nH]c2ccccc12)NC(=O)C(Cc1c[nH]c2ccccc12)NC(=O)C(Cc1c[nH]c2ccccc12)NC(=O)C(Cc1c[nH]c2ccccc12)NC(=O)C(Cc1c[nH]c2ccccc12)NC(=O)OC(C)(C)C (stereo not drawn) (Boc-WWWWW-OMe; configuration not given here): no
CCOP(=O)(OCC)C(NC(=O)C(C(F)(F)F)C(F)(F)F)c1ccccc1 (stereo not drawn): no
C=C(C)C(=O)O[C@H]1CC2(CO)O[C@@H]2CC/C(COC(C)=O)=C/C2OC(=O)C(=C)[C@@H]21 (stereo partly drawn): no
N=c1oc2c(Cl)cc(Cl)cc2cc1C(=O)Nc1cccc2ccccc12: no
CC1CN=C(NCc2ccccc2)S1 (stereo not drawn): no
COc1ccc2c3c1O[C@H](c1ccc(O)cc1)[C@H]3[N+](C)(C)CC2: no
Cc1ncc([N+](=O)[O-])n1CCNC(=O)Cn1ccnc1[N+](=O)[O-]: no
Cc1cc(C)c2c(=O)n(CN3CCC(C#N)(c4ccccc4)CC3)sc2n1: no
Cc1ccc(S[C@@H](C)[C@@](O)(CF)CN(Cc2ccccc2)C(=O)C(F)(F)F)cc1: no
O=C1CCCCC1CN1CCCCC1 (stereo not drawn): no
COC(=O)C1=Nc2c(C)nn(-c3ccccc3)c2N=C(c2ccc([N+](=O)[O-])cc2)C1: no
COc1ccc2nc3cc(Cl)ccc3c(NCCCN3CCN(CCCNc4ccc5nnn6c7ccccc7c(=O)c4c56)CC3)c2c1: no
C#CCN(Cc1ccc2[nH]c(N)nc(=O)c2c1)c1ccc(C(=O)NC(CCC(=O)O)C(=O)O)cc1 (stereo not drawn): no
O=C(CC(=O)N(C(=O)c1ccccc1)c1ccc(Cl)cc1)N/N=C\c1cc(/N=N/c2ccccc2Cl)ccc1O: no
O=C(O)c1nc(-c2ccccc2)ncc1-c1nnnn1-c1ccccc1: no
Cc1cc(Nc2ccc(/N=N/c3ccc(O)c4ncccc34)cc2)nc(C)n1: no
O=C(O)CC/C(=N\Nc1nsc2ccccc12)c1ccc(Cl)cc1: no
CC(C)(C)C(=O)C(N)C(=O)C(C)(C)C: no
O=S(=O)(O)C1CCC(O)C2NCCCC21 (stereo not drawn): no
CC(=O)OC(Cn1cncn1)(Cn1cncn1)c1ccc(Cl)cc1Cl: no
CC1(C)CC2=NO[Se]3=C2C(=NO3)C1: no

Sourced from ChEMBL document CHEMBL1201862
